Test system: HOS-TE85
assay explanation: Cytotoxicity against human MNNG cells assessed as cell growth inhibition measured after 72 hrs by MTT assay
Assay type: functional, cell-based
assay context: HOS-TE85, 72 h
recorded endpoint: pIC50
One number for each entry, as −log10 of the molar value.

Each of the following entries comes with a recorded value; kindly state pIC50 for each.
1. N#Cc1nc2c(nc1C#N)-c1cc(F)c(F)cc1/C2=N\NC1CCCCC1
2. CC1(C)CCC2=C(O1)c1ccccc1C(=O)C2=O [LAPACHONE]

5.65
5.62

Each of the following entries comes with a recorded value; kindly state pIC50 for each.
1. Cc1cc2c(cc1C)-c1oc(CN3CCOCC3)c(C)c1C(=O)C2=O
2. Cc1ccc2c(c1)-c1nc(C#N)c(C#N)nc1C2=O

5.81
5.73
